Data origin, for the record: paper PMC9785202

Assay: Pharmacokinetics after intravenous or oral administration of 10 mg/kg EZE to control and CCl4-induced rats
Type: in vivo
Conditions: Sprague-Dawley, rat, plasma, iv, 10 mg/kg, i.v. 10 mg/kg EZE, CCl4-induced rats, plasma, 5 min; read-out: Cmax (* plasma concentration at 5 min after intravenous injection)
Protocol: Animals were fasted for 12 h with free access to water before the experiments. […] WinNonlin version 6.1 (Pharsight Corp., Cary, NC, USA) was used to calculate the pharmacokinetic parameters in a non-compartmental model. Statistical comparisons between the two groups were evaluated using a Student’s two-tailed unpaired t-test or the nonparametric Mann–Whitney test in GraphPad Prism (version 8.0, GraphPad Software Inc, SanDiego, CA, USA). […]
MEASURE: Cmax at 5 min (ng/mL)

INSERT INTO results (compound, test_result) VALUES
  ('O=C1[C@H](CC[C@H](O)c2ccc(F)cc2)[C@@H](c2ccc(O)cc2)N1c1ccc(F)cc1 [EZE, reference compound]', 2950);

* * *

Experiment: Pharmacokinetics after intravenous or oral administration of 10 mg/kg EZE to control and CCl4-induced rats
Type: in vivo
Conditions: Sprague-Dawley, rat, plasma, iv, 10 mg/kg, i.v. 10 mg/kg EZE, CCl4-induced rats
# Cmax annotations
MEASURE: Cmax (ng/mL)

INSERT INTO assay_data (compound, unit_name, test_result) VALUES
  ('O=C(O)[C@H]1O[C@@H](Oc2ccc([C@@H]3[C@@H](CC[C@H](O)c4ccc(F)cc4)C(=O)N3c3ccc(F)cc3)cc2)[C@H](O)[C@@H](O)[C@@H]1O [EZE-Ph, ezetimibe phenoxy β-D-glucuronide]', 'ng/mL', 6970),
  ('O=C(O)[C@H]1O[C@@H](O[C@@H](CC[C@H]2C(=O)N(c3ccc(F)cc3)[C@@H]2c2ccc(O)cc2)c2ccc(F)cc2)[C@H](O)[C@@H](O)[C@@H]1O [EZE-Hy, ezetimibe hydroxy β-D-glucuronide]', 'ng/mL', 146);

* * *

Test: Portal vein and femoral vein plasma pharmacokinetics after oral EZE
Assay type: in vivo, rats
Conditions: Sprague-Dawley, rat, portal vein plasma, po, 10 mg/kg, oral 10 mg/kg EZE, control rats; read-out: AUC0–t in portal vein plasma
MEASURE: AUC(0-t)

INSERT INTO results (molecule, test_result) VALUES
  ('O=C1[C@H](CC[C@H](O)c2ccc(F)cc2)[C@@H](c2ccc(O)cc2)N1c1ccc(F)cc1 [EZE, reference compound]', '1850 ng·h/mL'),
  ('O=C(O)[C@H]1O[C@@H](Oc2ccc([C@@H]3[C@@H](CC[C@H](O)c4ccc(F)cc4)C(=O)N3c3ccc(F)cc3)cc2)[C@H](O)[C@@H](O)[C@@H]1O [EZE-Ph, ezetimibe phenoxy β-D-glucuronide]', '14800 ng·h/mL');

* * *

Test: Pharmacokinetics after intravenous or oral administration of 10 mg/kg EZE to control and CCl4-induced rats
Assay type: in vivo
Details: Sprague-Dawley, rat, plasma, po, 10 mg/kg, p.o. 10 mg/kg EZE, control rats
# Cmax annotations
MEASURE: Cmax (ng/mL)

INSERT INTO results (compound, measure, test_result) VALUES
  ('O=C(O)[C@H]1O[C@@H](Oc2ccc([C@@H]3[C@@H](CC[C@H](O)c4ccc(F)cc4)C(=O)N3c3ccc(F)cc3)cc2)[C@H](O)[C@@H](O)[C@@H]1O [EZE-Ph, ezetimibe phenoxy β-D-glucuronide]', 'Cmax', 276),
  ('O=C1[C@H](CC[C@H](O)c2ccc(F)cc2)[C@@H](c2ccc(O)cc2)N1c1ccc(F)cc1 [EZE, reference compound]', 'Cmax', 2.63),
  ('O=C(O)[C@H]1O[C@@H](O[C@@H](CC[C@H]2C(=O)N(c3ccc(F)cc3)[C@@H]2c2ccc(O)cc2)c2ccc(F)cc2)[C@H](O)[C@@H](O)[C@@H]1O [EZE-Hy, ezetimibe hydroxy β-D-glucuronide]', 'Cmax', 24.6);
